The origin of these recorded values is the supplement of paper PMC6555819.

Recorded PBM binding z-score by entry
tested on: PPARg:RXRa 90nM:30nM, anti-RXR (NR concentration 90 nM, RXRa partner concentration 30 nM); experiment: PBM binding z-score (relative to random genomic background probes); higher = stronger binding; sequences stand for … in GC…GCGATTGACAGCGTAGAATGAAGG

{"sequenceCode": "CCTAGCAGGCCAATATGGGTCACTCAAGGCTTGA", "targetOfAssay": "PPARg:RXRa 90nM:30nM, anti-RXR (NR concentration 90 nM, RXRa partner concentration 30 nM)", "PBM binding z-score": 1.15}
{"sequenceCode": "AATACAGGGTCAGCGTAGGCCAGAGTACGCACAG", "targetOfAssay": "PPARg:RXRa 90nM:30nM, anti-RXR (NR concentration 90 nM, RXRa partner concentration 30 nM)", "PBM binding z-score": 2.52}
{"sequenceCode": "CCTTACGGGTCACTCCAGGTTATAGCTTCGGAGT", "targetOfAssay": "PPARg:RXRa 90nM:30nM, anti-RXR (NR concentration 90 nM, RXRa partner concentration 30 nM)", "PBM binding z-score": 2.17}
{"sequenceCode": "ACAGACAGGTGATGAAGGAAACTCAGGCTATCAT", "targetOfAssay": "PPARg:RXRa 90nM:30nM, anti-RXR (NR concentration 90 nM, RXRa partner concentration 30 nM)", "PBM binding z-score": -0.159}
{"sequenceCode": "CCTTACGGGTCACTGCAGGTTATAGCATCGGAGT", "targetOfAssay": "PPARg:RXRa 90nM:30nM, anti-RXR (NR concentration 90 nM, RXRa partner concentration 30 nM)", "PBM binding z-score": 3.15}
{"sequenceCode": "CTAACTAGGTCATCCAGGACAGTGAATACATTGA", "targetOfAssay": "PPARg:RXRa 90nM:30nM, anti-RXR (NR concentration 90 nM, RXRa partner concentration 30 nM)", "PBM binding z-score": 7.08}
{"sequenceCode": "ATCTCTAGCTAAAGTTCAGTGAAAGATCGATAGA", "targetOfAssay": "PPARg:RXRa 90nM:30nM, anti-RXR (NR concentration 90 nM, RXRa partner concentration 30 nM)", "PBM binding z-score": 2.85}
{"sequenceCode": "TGAATGAGGTTAAGGATCAGGGAACGTGGCGTCG", "targetOfAssay": "PPARg:RXRa 90nM:30nM, anti-RXR (NR concentration 90 nM, RXRa partner concentration 30 nM)", "PBM binding z-score": 4.12}
{"sequenceCode": "GGAACGCGGGCAAGTTGATAGCAGAGTTTGATGG", "targetOfAssay": "PPARg:RXRa 90nM:30nM, anti-RXR (NR concentration 90 nM, RXRa partner concentration 30 nM)", "PBM binding z-score": -0.957}
{"sequenceCode": "CAAACTATGTCACCGGAAGGTCAAAGTCCGCATG", "targetOfAssay": "PPARg:RXRa 90nM:30nM, anti-RXR (NR concentration 90 nM, RXRa partner concentration 30 nM)", "PBM binding z-score": 2.98}
{"sequenceCode": "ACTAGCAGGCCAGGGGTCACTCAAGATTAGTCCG", "targetOfAssay": "PPARg:RXRa 90nM:30nM, anti-RXR (NR concentration 90 nM, RXRa partner concentration 30 nM)", "PBM binding z-score": 6.76}
{"sequenceCode": "TTACCAAGGTGAAGGTCGTTAATCCCTCTGTAGA", "targetOfAssay": "PPARg:RXRa 90nM:30nM, anti-RXR (NR concentration 90 nM, RXRa partner concentration 30 nM)", "PBM binding z-score": 3.43}
{"sequenceCode": "GGAACGAGGGCAAGTTGGTAGCAGAGTTTGATGG", "targetOfAssay": "PPARg:RXRa 90nM:30nM, anti-RXR (NR concentration 90 nM, RXRa partner concentration 30 nM)", "PBM binding z-score": 0.0314}
{"sequenceCode": "TCTCGGACGACACGAAAGGTCAGAGCTCGACATC", "targetOfAssay": "PPARg:RXRa 90nM:30nM, anti-RXR (NR concentration 90 nM, RXRa partner concentration 30 nM)", "PBM binding z-score": 2.66}
{"sequenceCode": "ATCTCTGGGTAACCAAGTTCAGTGAATGCCGAAC", "targetOfAssay": "PPARg:RXRa 90nM:30nM, anti-RXR (NR concentration 90 nM, RXRa partner concentration 30 nM)", "PBM binding z-score": 0.333}
{"sequenceCode": "TCTAGTTGGTCAAAGGTCACACTCTCGAAATGCG", "targetOfAssay": "PPARg:RXRa 90nM:30nM, anti-RXR (NR concentration 90 nM, RXRa partner concentration 30 nM)", "PBM binding z-score": 10.6}
{"sequenceCode": "CCTTACGGGTGACGAGGTTATAGCACGACGAGCG", "targetOfAssay": "PPARg:RXRa 90nM:30nM, anti-RXR (NR concentration 90 nM, RXRa partner concentration 30 nM)", "PBM binding z-score": 1.22}
{"sequenceCode": "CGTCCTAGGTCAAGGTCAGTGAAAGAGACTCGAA", "targetOfAssay": "PPARg:RXRa 90nM:30nM, anti-RXR (NR concentration 90 nM, RXRa partner concentration 30 nM)", "PBM binding z-score": 3.5}
{"sequenceCode": "TCATATAGGTAATACAGGTGACAGTCGGCATCTA", "targetOfAssay": "PPARg:RXRa 90nM:30nM, anti-RXR (NR concentration 90 nM, RXRa partner concentration 30 nM)", "PBM binding z-score": 3.05}
{"sequenceCode": "ACTAGTTGGTCAGCTGAGGTCACGCACAATTCGG", "targetOfAssay": "PPARg:RXRa 90nM:30nM, anti-RXR (NR concentration 90 nM, RXRa partner concentration 30 nM)", "PBM binding z-score": 2.16}
{"sequenceCode": "ATCTCCAGGTAAGACTCAGTTCAGTGAAGAACGC", "targetOfAssay": "PPARg:RXRa 90nM:30nM, anti-RXR (NR concentration 90 nM, RXRa partner concentration 30 nM)", "PBM binding z-score": 0.596}
{"sequenceCode": "CCTTACGGGTCACTCACAGGTTATAGCATTTGGA", "targetOfAssay": "PPARg:RXRa 90nM:30nM, anti-RXR (NR concentration 90 nM, RXRa partner concentration 30 nM)", "PBM binding z-score": 2.78}
{"sequenceCode": "TAGCCTAGGTCATGGGGCCAGTATAGTACGCATC", "targetOfAssay": "PPARg:RXRa 90nM:30nM, anti-RXR (NR concentration 90 nM, RXRa partner concentration 30 nM)", "PBM binding z-score": 2.66}
{"sequenceCode": "ATCTCTAGGTAAAAGTTGAGTGAATCCCGAGGAT", "targetOfAssay": "PPARg:RXRa 90nM:30nM, anti-RXR (NR concentration 90 nM, RXRa partner concentration 30 nM)", "PBM binding z-score": 6.22}
{"sequenceCode": "AGAATGCGGTTACCAAAGATCAGGGAAACGCTTG", "targetOfAssay": "PPARg:RXRa 90nM:30nM, anti-RXR (NR concentration 90 nM, RXRa partner concentration 30 nM)", "PBM binding z-score": -0.17}
{"sequenceCode": "ATCGAAAGGTCGAAGGTGAGAATACCCACCCGAA", "targetOfAssay": "PPARg:RXRa 90nM:30nM, anti-RXR (NR concentration 90 nM, RXRa partner concentration 30 nM)", "PBM binding z-score": 4.31}
{"sequenceCode": "TCTCGGAAGACACGAAAGGTCAGAGCTCGACATC", "targetOfAssay": "PPARg:RXRa 90nM:30nM, anti-RXR (NR concentration 90 nM, RXRa partner concentration 30 nM)", "PBM binding z-score": 2.35}
{"sequenceCode": "CCAGACAGGTGCAAGGTAACTCAGTCTGGTACGC", "targetOfAssay": "PPARg:RXRa 90nM:30nM, anti-RXR (NR concentration 90 nM, RXRa partner concentration 30 nM)", "PBM binding z-score": 0.128}
{"sequenceCode": "TGTCAAAGTTCAAACGTAACGTAAGTATCCACAC", "targetOfAssay": "PPARg:RXRa 90nM:30nM, anti-RXR (NR concentration 90 nM, RXRa partner concentration 30 nM)", "PBM binding z-score": 7.39}
{"sequenceCode": "ATATGAAGGTTAGCTGGGGTCATTCAGACTAGGC", "targetOfAssay": "PPARg:RXRa 90nM:30nM, anti-RXR (NR concentration 90 nM, RXRa partner concentration 30 nM)", "PBM binding z-score": 2.37}
{"sequenceCode": "TAGACAGGGTCAAAGGCCAGAGTACGAATGTCGA", "targetOfAssay": "PPARg:RXRa 90nM:30nM, anti-RXR (NR concentration 90 nM, RXRa partner concentration 30 nM)", "PBM binding z-score": 6.42}
{"sequenceCode": "TCGAGTAGGGTAGTCGGGGCATTCAGCCAACATA", "targetOfAssay": "PPARg:RXRa 90nM:30nM, anti-RXR (NR concentration 90 nM, RXRa partner concentration 30 nM)", "PBM binding z-score": 0.442}
{"sequenceCode": "GCTTGTAGTTCAAGGTTAAGAAAGACTAAGCTAA", "targetOfAssay": "PPARg:RXRa 90nM:30nM, anti-RXR (NR concentration 90 nM, RXRa partner concentration 30 nM)", "PBM binding z-score": 1.18}
{"sequenceCode": "GATACAGGGTCAGCTAGAGGCCTGAGTATGGAAA", "targetOfAssay": "PPARg:RXRa 90nM:30nM, anti-RXR (NR concentration 90 nM, RXRa partner concentration 30 nM)", "PBM binding z-score": 1.56}
{"sequenceCode": "GAAACGAGGGCATTCGAGTTGATAGCATGGCGAT", "targetOfAssay": "PPARg:RXRa 90nM:30nM, anti-RXR (NR concentration 90 nM, RXRa partner concentration 30 nM)", "PBM binding z-score": 0.829}
{"sequenceCode": "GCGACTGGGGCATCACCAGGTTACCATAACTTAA", "targetOfAssay": "PPARg:RXRa 90nM:30nM, anti-RXR (NR concentration 90 nM, RXRa partner concentration 30 nM)", "PBM binding z-score": 0.216}
{"sequenceCode": "AGAAAGAGGGCACGCTGAGTTGATAGCAGAGTAG", "targetOfAssay": "PPARg:RXRa 90nM:30nM, anti-RXR (NR concentration 90 nM, RXRa partner concentration 30 nM)", "PBM binding z-score": 1.09}
{"sequenceCode": "AGTCAAAGTTTACTAGGTAACGTAAGATTCAGCT", "targetOfAssay": "PPARg:RXRa 90nM:30nM, anti-RXR (NR concentration 90 nM, RXRa partner concentration 30 nM)", "PBM binding z-score": 2.53}
{"sequenceCode": "GGAACGACGGCAAAGTTGATAGCATCTGTCGACG", "targetOfAssay": "PPARg:RXRa 90nM:30nM, anti-RXR (NR concentration 90 nM, RXRa partner concentration 30 nM)", "PBM binding z-score": 1.28}
{"sequenceCode": "ATGTCTAGGTAACCAAGTTCAGTGAATGCCGAAC", "targetOfAssay": "PPARg:RXRa 90nM:30nM, anti-RXR (NR concentration 90 nM, RXRa partner concentration 30 nM)", "PBM binding z-score": 0.432}
{"sequenceCode": "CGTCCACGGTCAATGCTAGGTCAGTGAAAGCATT", "targetOfAssay": "PPARg:RXRa 90nM:30nM, anti-RXR (NR concentration 90 nM, RXRa partner concentration 30 nM)", "PBM binding z-score": -0.669}
{"sequenceCode": "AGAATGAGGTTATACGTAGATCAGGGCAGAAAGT", "targetOfAssay": "PPARg:RXRa 90nM:30nM, anti-RXR (NR concentration 90 nM, RXRa partner concentration 30 nM)", "PBM binding z-score": 1.41}
{"sequenceCode": "ATCTCTAGGAAAAGTTCAGTGAAAGATCGATAGA", "targetOfAssay": "PPARg:RXRa 90nM:30nM, anti-RXR (NR concentration 90 nM, RXRa partner concentration 30 nM)", "PBM binding z-score": 1.36}
